# study target: GST-Hu-p50 (Homo sapiens, UniProt P19838 7-356)
# Sequence (P19838 7-356): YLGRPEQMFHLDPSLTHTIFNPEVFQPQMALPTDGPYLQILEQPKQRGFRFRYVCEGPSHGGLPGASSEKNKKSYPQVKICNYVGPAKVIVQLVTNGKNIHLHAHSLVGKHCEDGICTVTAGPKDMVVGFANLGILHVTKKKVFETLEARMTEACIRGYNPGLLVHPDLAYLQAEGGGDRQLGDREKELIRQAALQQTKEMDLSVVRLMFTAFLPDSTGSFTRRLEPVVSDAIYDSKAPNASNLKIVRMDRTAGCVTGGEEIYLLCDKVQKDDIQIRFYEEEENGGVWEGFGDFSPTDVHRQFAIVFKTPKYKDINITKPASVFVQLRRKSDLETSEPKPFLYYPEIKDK
# assay procedure: protein-binding microarray (PBM); PBM: ~300 nM protein, 6 mM HEPES pH 7.8, 80 mM KCl, 0.5 mM EDTA, 0.5 mM EGTA, 6% glycerol, 35 ng/ul poly-dIdC, 1% milk, 1 h, room temperature; Ap Aiptasia and Nv Nematostella (sea anemones) / Co Capsaspora / Aq Amphimedon (sponge) / Dm Drosophila / Hu human; RHD is the Rel homology domain; high values mean tight binding
# applied conditions: dsDNA, one strand shown
Mark satisfied only for binding signal values smaller than 6 z-score; exact matches and larger values are not satisfied.

Observe how each entry below is paired with its result.
CCGATTAACATCAGGACATTCCCTGATGTTAATCGGGTCTTGATTCGCTTGACGCTGCTG; satisfied
CCGATTAACATCAAGGGGGGTTATGATGTTAATCGGGTCTTGATTCGCTTGACGCTGCTG; satisfied
CCGATTAACATCAGGGGGTGCACTGATGTTAATCGGGTCTTGATTCGCTTGACGCTGCTG; satisfied

Turning to the following sequence.
Data request: Confirm or reject: binding signal of CCGATTAACATCAGGGGAACGCATGATGTTAATCGGGTCTTGATTCGCTTGACGCTGCTG lies strictly below 6 z-score
Data returned: satisfied
